Details: 298.15 K; 101.33 kPa; Liquid; Vibrating tube method
metric: mass density (kg/m3)
One number for each entry, in kg/m3.

Use these answered entries as a reference point.
smiles.str: FC(F)(F)C(F)(F)C(F)(F)C(F)(F)C(F)(F)C(F)(F)F
metric: mass density
reported.value: 1684.4
//
smiles.str: FC(F)(F)C1(F)C(F)(F)C(F)(F)C(F)(F)C(F)(F)C1(F)F
metric: mass density
reported.value: 1786.6
//
smiles.str: OC(C(F)(F)F)C(F)(F)F
metric: mass density
reported.value: 1604.84

mass density for "CO" is 786.58
